Molecular target: CIB1 and αIIb interaction (CIB1-GST : F-αIIb peptide) (Homo sapiens, UniProt Q99828)
Construct: made in house; host or cells: BL-21 plus RIL cells (E. coli)
Assay: FP assay, 1536-well qHTS format (primary and confirmatory screen)
Format: binding
Conditions: qHTS primary screen hits, Table S2; negative sign = inhibitory curve; several classes where COUNT > 1
The following compounds are shown together with reported Curve Class values.
I'd appreciate a reply containing only the number, no unit.

Any idea what its Curve Class is? The compound is `CN1CCN(c2nc3cc(C(F)(F)F)ccc3n3cccc23)CC1.O=C(O)/C=C\C(=O)O`
-2.2

Moving on to the next compound: CCOC(=O)OC(C)OC(=O)c1csc(-n2nc(-c3ccc(F)c(F)c3)cc2O)n1.O=C(O)C(F)(F)F (stereo not shown)
-2.4

Moving on to the next compound: `CCOC(=O)c1c(-c2ccc(C)o2)csc1NC(=O)CSc1nnnn1-c1ccccc1.O=C(O)C(F)(F)F`
-1.2

====

The following compounds are shown together with reported 384-well COUNTERSCREEN Efficacy (%) values.
Biological target: GST-CIB1 : F-scrambled peptide (Homo sapiens, UniProt Q99828)
Construct: made in house; host or cells: BL-21 plus RIL cells (E. coli)
Experiment: FP scrambled-peptide counter screen, 384-well format
Type: binding
Conditions: F-scrambled peptide
Unit % implied. Number only.

COc1cc(C(=O)NS(=O)(=O)c2ccccc2C)ccc1Cc1cn(C)c2ccc(NC(=O)OC3CCCC3)cc12	60
O=C(CN(c1cccc(Br)c1)S(=O)(=O)c1ccccc1)NN=CC1=CC(=[N+]([O-])O)C=CC1=O.O=C(O)C(F)(F)F	52
COC(=O)c1ccc2c(c1)S(=O)(=O)N=C2Sc1cc(C)ccc1C	45
NS(=O)(=O)c1cccc2c1c([N+](=O)[O-])cc1nc(O)c([O-])nc12.[Na+]	70
Cc1cc2c(C(C)C)c(O)c(O)c(C=O)c2c(O)c1-c1c(C)cc2c(C(C)C)c(O)c(O)c(C=O)c2c1O	60

Any idea what its 384-well COUNTERSCREEN Efficacy (%) is? The compound is `CCc1oc2ccccc2c1C(=O)c1cc(I)c(O)c(I)c1`
173

Moving on to the next compound: `Cc1ccc(S(=O)(=O)Nc2cnccc2C(=O)Nc2nc(-c3nc4ccccc4s3)cs2)cc1.O=C(O)C(F)(F)F`
23

Moving on to the next compound: `N#Cc1ccc(N2N=C3c4ccc(C(=O)O)cc4CC[C@@H]3[C@@H]2C2CCCC2)cc1Cl`
40

====

Target: CIB1 and αIIb interaction (CIB1-GST : F-αIIb peptide) (Homo sapiens, UniProt Q99828)
Construct: made in house; host or cells: BL-21 plus RIL cells (E. coli)
Assay: FP assay, 1536-well qHTS format (primary and confirmatory screen)
Type: binding
Conditions: qHTS primary screen hits, Table S2; negative = inhibition
The recorded Efficacy (%) of each item maps onto one of these classes: lower band: < -40%; central band: ≥ -40% and < -30%; upper band: ≥ -30%

CN(C)c1cnc2c(O)cccc2c1.O=C(O)C(F)(F)F	lower band
CN(C)CCc1c[nH]c2ccc(O)cc12	upper band
O=C(O)C(F)(F)F.OCc1ccc(-c2ccc3ncnc(NCc4ncc[nH]4)c3c2)o1	central band

Sort `O=C(O)C(F)(F)F.O=S(=O)(Nc1nccs1)c1ccc(NCc2cc(F)cc(Cl)c2O)cc1` into one of the categories.
upper band

Moving on to the next compound: `O=C(CS)Nc1ccccc1`
lower band

====

The following compounds are shown together with reported CONFIRMATORY SCREEN Curve Class values.
Target: CIB1 and αIIb interaction (CIB1-GST : F-αIIb peptide) (Homo sapiens)
Construct: made in house; host or cells: BL-21 plus RIL cells (E. coli)
Experiment: FP assay, 1536-well qHTS format (primary and confirmatory screen)
Assay type: binding
Conditions: confirmatory screen, qHTS curve class; negative sign = inhibitory curve
I'd appreciate a reply containing only the number, no unit.

Sample answers from the record:
O=C(Cc1ccc(Cl)c(Cl)c1)Nc1ccc(S(=O)(=O)Nc2nnc(-c3ccccn3)s2)cc1.O=C(O)C(F)(F)F	-2.1
O=C(c1cccs1)c1no[n+]([O-])c1C(=O)c1cccs1	-1.4
O=S(=O)(c1ccc2nc(Cl)c(Cl)nc2c1)N1CCN(S(=O)(=O)c2c(F)cccc2F)CC1	-1.4
Cc1c(C)n(Cc2ccc(-c3ccccc3C(=O)O)cc2)c2ccc(C(=O)N[C@@H](C)c3ccc([N+](=O)[O-])cc3)cc12	-1.2
CC[S+]([O-])c1nc(-c2cccc(OCc3ccccc3)c2)cc(C(F)(F)F)n1 (stereo not shown)	-1.2

Any idea what its CONFIRMATORY SCREEN Curve Class is? The compound is `O=C(Nc1nc(-c2ccccc2)cs1)c1ccncc1NS(=O)(=O)c1ccc(Cl)cc1.O=C(O)C(F)(F)F`
-1.2

Moving on to the next compound: `Cc1ccc(S(=O)(=O)Nc2cnccc2C(=O)Nc2nc(-c3ccc4c(c3)CCCC4)cs2)cc1.O=C(O)C(F)(F)F`
-1.2

====

Molecular target: GST-CIB1 : F-scrambled peptide (Homo sapiens)
Construct: made in house; host or cells: BL-21 plus RIL cells (E. coli)
Sequence (Q99828 1-191): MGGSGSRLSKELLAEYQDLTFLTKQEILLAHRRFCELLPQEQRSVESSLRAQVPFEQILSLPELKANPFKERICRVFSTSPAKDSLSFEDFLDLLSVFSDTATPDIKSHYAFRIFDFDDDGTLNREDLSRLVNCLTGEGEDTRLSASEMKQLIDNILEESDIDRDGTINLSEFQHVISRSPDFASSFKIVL
Assay: FP scrambled-peptide counter screen, 1536-well format
Type: binding
Details: Table S3, counterscreen, qHTS curve class; a negative sign marks inhibitory curves
Is Curve Class (counterscreen) at least -2? Then yes (1). If not, no (0).

Consider the worked cases shown below.
CN1CCc2cccc3c2[C@H]1Cc1ccc(O)c(O)c1-3 [NCGC00025349-05]	yes (1)
O=C(O)C(F)(F)F.O=C1Nc2ccccc2/C1=N/NC(=S)Nc1ccc(C(=O)O)cc1 [NCGC00229530-01]	yes (1)
NC(=O)C1CCN(c2ncc(Br)s2)CC1 [NCGC00184919-01]	no (0)

Exam item: decide whether the reported Curve Class (counterscreen) for O=C(O)c1cc(/N=N/c2ccc(S(=O)(=O)Nc3ccccn3)cc2)ccc1O [NCGC00090903-09] is at least -2.
no (0)

Moving on to the next compound: CC(=O)c1c(O)cc2cccc3c2c1CC(C)(O)O3 (stereo not shown) [NCGC00381142-01]
no (0)

Moving on to the next compound: Cc1cc(NS(=O)(=O)c2ccc(NC(=O)Cc3cccc4ccccc34)cc2)no1.O=C(O)C(F)(F)F [NCGC00244880-01]
no (0)

Moving on to the next compound: COc1ccccc1Nc1ccc2c(O)cc(S(=O)(=O)O)cc2c1.O=C(O)C(F)(F)F [NCGC00372954-01]
no (0)

Moving on to the next compound: NS(=O)(=O)c1ccc(Nc2nc(-c3ccccc3)cs2)cc1.O=C(O)C(F)(F)F [NCGC00262411-01]
no (0)

Moving on to the next compound: CCC(C)Cn1c(O)cc2nn(-c3nc4ccccc4s3)c(=O)c-2c1C.O=C(O)C(F)(F)F (stereo not shown) [NCGC00386995-01]
yes (1)

Moving on to the next compound: O=C(O)C(F)(F)F.O=C(O)c1ccc(Cc2c(-c3cccc(-c4ccccc4)c3)nn(-c3nc(C(=O)O)cs3)c2O)cc1 [NCGC00356639-01]
no (0)

Moving on to the next compound: Cn1cc(-c2[nH]c3cc(NC(=O)[C@H](N)C4CCCCC4)cc4c3c2C=NNC4=O)cn1 [NCGC00263132-02]
no (0)

Moving on to the next compound: COc1ccc2[nH]c([S+]([O-])Cc3ncc(C)c(OC)c3C)nc2c1 (stereo not shown) [NCGC00016925-10]
no (0)

Moving on to the next compound: Cn1cnc(-c2nccc3c(O)nc(OCCCC(F)(F)F)nc23)c1.O=C(O)C(F)(F)F [NCGC00381768-02]
yes (1)

====

Target: GST-CIB1 : F-scrambled peptide (Homo sapiens, UniProt Q99828)
Construct: made in house; host or cells: BL-21 plus RIL cells (E. coli)
Test: FP scrambled-peptide counter screen, 1536-well format
Type: binding
Conditions: counterscreen
EXPERIMENTAL ENDPOINT: Efficacy (%) (counterscreen)
Unit % implied. Number only.

Cl.O=C1c2c(O)ccc(O)c2C(=O)c2c(NCCNCCO)ccc(NCCNCCO)c21	-125
CCOC(=O)c1cc(-c2ccco2)nc2c1c(C)nn2CCC#N.O=C(O)C(F)(F)F	-56
CN1CCN(c2ccc(Nc3nn4c(=O)c5ccccc5nc4s3)cc2)CC1.O=C(O)C(F)(F)F	-37
CCCC(=O)c1cc(O)c(O)cc1O	-107
CNc1ccc([N+](=O)[O-])c(Nc2ccc3[nH]ncc3c2)n1	-36
Cn1c(NC2=NC3(CCCC3)C3=C(CCCC3=O)N2)nc2ccccc21.O=C(O)C(F)(F)F	-13

Any idea what its Efficacy (%) (counterscreen) is? The compound is O=C1NC(c2ccc(N3CCOCC3)cc2)(c2ccsc2)CC(O)=C1Sc1ccccc1Cl (centres unmarked)
-48

Moving on to the next compound: `CCN1CCN(c2cccc(Nc3nn4c(=O)c5ccccc5nc4s3)c2)CC1.Cl`
-58
